# setup_conditions: 313.1 K; Liquid; Closed cell (Static) method
metric: vapor or sublimation pressure (kPa)

Consider the following illustrative entries.
Exercise: # lookup: vapor or sublimation pressure of Cc1ccccc1
Solution: 7.99

Exercise: # lookup: vapor or sublimation pressure of CC(C)CC(C)(C)C
Solution: 12.97

P. CCO
Q. COC(C)(C)C
Exercise: # min-compare on vapor or sublimation pressure between P and Q # answer = label of selected item
Solution: P
